The measured values listed here are drawn from patent US20230129721A1.

- assayRemarks: Radiochemical purity of [^18F]PI-2620 radiopharmaceutical composition over time at 40° C. by HPLC
- Assay type: physicochemical
- conditionNotes: [^18F]PI-2620, 2 nM phosphate buffer and 10% ethanol, vitamin 50 mg/mL (control: sodium ascorbate), 0 hr
propertyLabel: Purity (radiochemical purity) (%)
Provide only the numeric value, understood in %.

Query `Nc1ccc(C(=O)O)cc1` yields Purity (radiochemical purity) of 98.01

###

- assayRemarks: Radiochemical purity of [^18F]PI-2620 radiopharmaceutical composition over time at 40° C. by HPLC
- Format: physicochemical
- conditionNotes: [^18F]PI-2620, 2 nM phosphate buffer and 10% ethanol, vitamin 50 mg/mL (control: sodium ascorbate), 6 hr
propertyLabel: Purity (radiochemical purity) (%)
Provide only the numeric value, understood in %.

Here are 3 compounds together with their reported answers.
{"compound": "Nc1ncnc2c1ncn2[C@@H]1O[C@H](COP(=O)(O)O)[C@@H](O)[C@H]1O [VB8, adenosine phosphate]", "Purity (radiochemical purity) (%)": 87.76}
{"compound": "O=C1O[C@H]([C@@H](O)CO)C([O-])=C1O.[Na+] [Na ascorbate, sodium ascorbate]", "Purity (radiochemical purity) (%)": 90.04}
{"compound": "Nc1ccc(C(=O)O)cc1", "Purity (radiochemical purity) (%)": 86.09}

Next:
Query `Cc1ncc(C[n+]2csc(CCO)c2C)c(N)n1` yields Purity (radiochemical purity) of 98.94
